Hello, the source for this data is paper PMC11435393, in case you need it.

Each entry below carries its reported pIC50.
TESTED TARGET: eeAChE (Electrophorus electricus, UniProt O42275)
Sequence (O42275 24-633): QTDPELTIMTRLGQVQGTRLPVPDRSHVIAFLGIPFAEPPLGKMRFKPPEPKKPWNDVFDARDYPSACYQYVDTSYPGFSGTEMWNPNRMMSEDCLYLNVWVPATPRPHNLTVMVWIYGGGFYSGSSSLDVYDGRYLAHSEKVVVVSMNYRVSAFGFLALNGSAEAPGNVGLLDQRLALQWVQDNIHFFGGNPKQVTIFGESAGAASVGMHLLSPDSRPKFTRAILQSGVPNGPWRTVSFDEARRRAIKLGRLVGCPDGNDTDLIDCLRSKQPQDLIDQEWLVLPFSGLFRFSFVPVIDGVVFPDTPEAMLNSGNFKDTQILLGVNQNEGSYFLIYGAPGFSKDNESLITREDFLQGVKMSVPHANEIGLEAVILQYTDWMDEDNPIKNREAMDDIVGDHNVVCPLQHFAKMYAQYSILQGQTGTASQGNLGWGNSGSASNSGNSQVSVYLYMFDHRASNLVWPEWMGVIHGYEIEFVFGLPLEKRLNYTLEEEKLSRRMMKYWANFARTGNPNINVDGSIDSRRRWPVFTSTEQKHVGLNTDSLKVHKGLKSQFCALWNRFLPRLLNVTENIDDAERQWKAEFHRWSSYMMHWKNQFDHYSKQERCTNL
EXPERIMENT: biochemical
APPLIED CONDITIONS: mean ± SD; read-out: IC50 (EC50) AChE
pIC50: −log10 of the molar value.
VALUE KIND: pIC50

{"MOLECULE": "CCOC(=O)c1cc(-c2ccc(Br)cc2)n(C(C(=O)NN)C(C)C)c1C (centres unmarked)", "VALUE RELATION SIGN": "=", "REPORTED": 5.38}
{"MOLECULE": "CCOC(=O)c1cc(-c2ccc(Br)cc2)n(C(C(=O)N/N=C/c2ccc(OC)cc2)C(C)C)c1C (centres unmarked)", "VALUE RELATION SIGN": "=", "REPORTED": 4.79}
{"MOLECULE": "CCOC(=O)c1cc(-c2ccc(Br)cc2)n(C(C(=O)N/N=C/c2ccc(Cl)cc2)C(C)C)c1C (centres unmarked)", "VALUE RELATION SIGN": "=", "REPORTED": 4.73}
{"MOLECULE": "CCOC(=O)c1cc(-c2ccc(Br)cc2)n(C(C(=O)N/N=C/c2ccc(OC)cc2OC)C(C)C)c1C (centres unmarked)", "VALUE RELATION SIGN": "<", "REPORTED": 4.00}
{"MOLECULE": "CCOC(=O)c1cc(-c2ccc(Br)cc2)n(C(C(=O)N/N=C/c2cccc(F)c2)C(C)C)c1C (centres unmarked)", "VALUE RELATION SIGN": "<", "REPORTED": 4.00}
